SYSTEM: human TRPA1 (Homo sapiens (Human), UniProt O75762)
Sequence (O75762 whole entry): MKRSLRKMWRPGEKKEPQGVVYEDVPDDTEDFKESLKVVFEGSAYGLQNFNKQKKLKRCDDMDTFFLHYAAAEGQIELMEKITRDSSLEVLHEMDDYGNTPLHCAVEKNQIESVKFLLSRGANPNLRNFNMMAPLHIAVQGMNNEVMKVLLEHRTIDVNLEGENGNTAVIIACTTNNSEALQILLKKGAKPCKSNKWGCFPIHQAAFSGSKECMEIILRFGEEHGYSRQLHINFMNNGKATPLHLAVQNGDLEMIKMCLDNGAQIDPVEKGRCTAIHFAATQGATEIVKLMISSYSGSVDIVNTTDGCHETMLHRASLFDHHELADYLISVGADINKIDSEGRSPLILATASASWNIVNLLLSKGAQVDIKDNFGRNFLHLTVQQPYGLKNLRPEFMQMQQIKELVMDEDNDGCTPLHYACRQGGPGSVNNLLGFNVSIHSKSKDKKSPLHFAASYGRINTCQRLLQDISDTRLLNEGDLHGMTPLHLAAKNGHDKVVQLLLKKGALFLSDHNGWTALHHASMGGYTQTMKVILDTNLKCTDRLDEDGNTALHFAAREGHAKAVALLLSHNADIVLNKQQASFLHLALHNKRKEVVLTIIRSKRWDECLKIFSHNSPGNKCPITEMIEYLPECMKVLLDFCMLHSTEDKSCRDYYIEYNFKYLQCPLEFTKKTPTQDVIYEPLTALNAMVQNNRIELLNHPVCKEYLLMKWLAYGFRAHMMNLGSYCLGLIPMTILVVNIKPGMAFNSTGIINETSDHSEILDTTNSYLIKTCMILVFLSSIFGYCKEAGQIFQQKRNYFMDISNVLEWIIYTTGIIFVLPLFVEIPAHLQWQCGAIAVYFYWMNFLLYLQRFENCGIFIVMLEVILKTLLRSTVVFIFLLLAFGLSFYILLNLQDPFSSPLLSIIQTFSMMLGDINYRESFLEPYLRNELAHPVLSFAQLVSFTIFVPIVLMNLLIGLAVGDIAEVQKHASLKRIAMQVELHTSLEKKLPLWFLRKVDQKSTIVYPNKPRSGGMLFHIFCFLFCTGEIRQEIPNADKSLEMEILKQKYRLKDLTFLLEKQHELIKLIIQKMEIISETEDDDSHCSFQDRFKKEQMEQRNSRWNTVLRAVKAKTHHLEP
TEST_NAME: hTRPA1 CHO Ca2+ AUC EVO (IC50); FLIPR Tetra block of cinnamaldehyde induced calcium influx
Format: cell-based
EXPERIMENTAL_CONDITIONS: Table 3; CHO cells expressing TRPA1, 75 uM cinnamaldehyde agonist
RECORDED_METRIC: IC50 (nM)

Example entries and their recorded answers appear below.
[
  {
    "COMPOUND": "COc1nn(-c2ccc(C(F)(F)F)nc2)cc1CNC(=O)C1CCCC1S(=O)(=O)c1ccc(F)cc1 (single isomer, unassigned; enantiomer 2)",
    "UNIT_SPEC": "nM",
    "NUMBER": 218
  },
  {
    "COMPOUND": "O=C(NCc1ccc(F)c(-c2cnc(C(F)(F)F)nc2)c1)[C@@H]1CC[C@@H]1S(=O)(=O)c1ccc(F)cc1",
    "UNIT_SPEC": "nM",
    "NUMBER": 159
  },
  {
    "COMPOUND": "COc1nn(-c2ccc(C(F)(F)F)cc2)cc1CC(=O)N[C@@H]1CC[C@@H]1S(=O)(=O)c1ccc(F)cc1",
    "UNIT_SPEC": "nM",
    "NUMBER": 5.2
  },
  {
    "COMPOUND": "O=C(NCc1cc(-c2ccc(C(F)(F)F)nc2)ncc1Cl)[C@@H]1CC[C@@H]1S(=O)(=O)c1ccc(F)cc1",
    "UNIT_SPEC": "nM",
    "NUMBER": 140
  },
  {
    "COMPOUND": "COc1nn(-c2ccc(C(F)(F)F)nc2)cc1CNC(=O)C1(C)CCCC1S(=O)(=O)c1ccc(F)cc1 (single isomer, unassigned; enantiomer 1) [Example 34]",
    "UNIT_SPEC": "nM",
    "NUMBER": 33.1
  }
]

[1] COc1nn(-c2ccc(C(F)F)cc2)cc1CC(=O)N[C@@H]1CC[C@@H]1S(=O)(=O)c1ccc(F)cc1
[2] O=C(NCc1cn(-c2ccc(C(F)(F)F)cc2)nc1Cl)C1CCC1S(=O)(=O)c1ccc(F)cc1 (single isomer, unassigned; enantiomer 2) [Example 29]
// max by IC50 over [ 1 , 2 ] Which one? Tell me its label. 2
